Data provenance is ChEMBL document CHEMBL1158576.

Tested on: Streptomyces
EXPERIMENT_SUMMARY: Growth inhibition in Streptomyces 85E at 2.5 ug/disk by hyphae formation inhibition assay
Assay type: functional, organism-based
Calls of active or inactive are those of the source. No cut-off for these calls is given here.

COMPOUND: C=C(C)C(O)Cc1cc(C(=O)Nc2c(O)c3ccc(O)c(C)c3oc2=O)ccc1O (stereo not drawn)
inhibition zone (IZ): inactive

COMPOUND: CO[C@@H]1[C@@H](O)[C@@H](OC(N)=O)[C@H](Oc2ccc3c(O)c(NC(=O)c4ccc(O)c(CC=C(C)C)c4)c(=O)oc3c2C)OC1(C)C
inhibition zone (IZ): inactive

COMPOUND: CO[C@@H]1[C@@H](OC(N)=O)[C@@H](O)[C@H](Oc2ccc3c(O)c(NC(=O)c4ccc5c(c4)CC(C(C)(C)O)O5)c(=O)oc3c2C)OC1(C)C (stereo partly drawn)
inhibition zone (IZ): inactive

----------
System: Streptomyces
EXPERIMENT_SUMMARY: Growth inhibition in Streptomyces 85E assessed as clear zone of inhibition at 20 ug/disk by hyphae formation inhibition assay
Format: functional
COND: read-out: IZ
RECORDED_ENDPOINT: zone of inhibition at 20 µg/disc

COMPOUND: CO[C@@H]1[C@@H](OC(N)=O)[C@@H](O)[C@H](Oc2ccc3c(O)c(NC(=O)c4ccc5c(c4)CC(O)C(C)(C)O5)c(=O)oc3c2C)OC1(C)C (stereo partly drawn) [COUMABIOCIN D]
RESULT: 10 mm
//
COMPOUND: CO[C@@H]1[C@@H](OC(N)=O)[C@@H](O)[C@H](Oc2ccc3c(O)c(NC(=O)c4ccc(O)c(CC=C(C)C)c4)c(=O)oc3c2C)OC1(C)C [NOVOBIOCIN]
RESULT: 20 mm
//
COMPOUND: C=C(C)C(O)Cc1cc(C(=O)Nc2c(O)c3ccc(O[C@@H]4OC(C)(C)[C@H](OC)[C@@H](OC(N)=O)[C@H]4O)c(C)c3oc2=O)ccc1O (stereo partly drawn) [COUMABIOCIN E]
RESULT: 11 mm
